# key: entry, value: Blocking rate against glutamic acid
- System: Glutamic Acid at Neuromuscular Junctions of Crayfish (opener muscles of the first walking legs)
- method_summary: Blocking effects against Glutamic Acid at Neuromuscular Junctions of Crayfish
- study_conditions: test compound 2 × 10^-5 M, 5-minute pretreatment, L-glutamic acid 10^-4 M; 20 µM
Return type: number; implicit unit %.

Look over these answered cases.
CCCC[C@@H]1[C@H](c2ccccc2)OC(=O)N1CCCN1CCCCC1 (racemic) [Compound 36] | 53
CC(C)CC[C@@H]1[C@H](c2ccccc2)OC(=O)N1CCCN1CCCCC1 (racemic) [Compound 40] | 61
CCCC[C@@H]1[C@@H](c2ccccc2)OC(=O)N1CCCN1CCCCC1 (racemic) [Compound 35] | 68

Input CCCCC[C@@H]1[C@@H](c2ccccc2)OC(=O)N1CCCN1CCCCC1 (racemic) [Compound 37] . Output Blocking rate against glutamic acid: 58

CCCCCC[C@@H]1[C@@H](c2ccccc2)OC(=O)N1CCCN1CCCCC1 (racemic) [Compound 41] has a reported Blocking rate against glutamic acid of 69

Sourced from patent US4644063A
